System name: PDPK1 (human)
Assay remarks: radiometric filter-binding kinase assay, Kinase HotSpot
Experimental conditions: compound 0.5 µM; ATP 10 µM
Quantity name: residual activity (%)
Give bare numbers, in %.

INSERT INTO results (compound, reported_measurement) VALUES
  ('Oc1cccc(-c2nc(N3CCOCC3)c3oc4ncccc4c3n2)c1', 103),
  ('O=S(=O)(c1cccc2cnccc12)N1CCCNCC1', 91.3);

State recorded residual activity for all listed compounds.
1. COc1cc2ncnc(Nc3cccc(Cl)c3)c2cc1OC
2. O=C1NC(=O)c2c1c1c3ccccc3n3c1c1c2c2ccccc2n1C1CCC3O1
3. O=C1NC(=O)/C(=C/c2ccc3c(c2)OC(F)(F)O3)S1
4. CCCC(=O)Oc1ccc2[nH]c(C(=O)c3cc4ccccc4[nH]3)cc2c1
5. CO[C@H]1CC2CC[C@@H](C)[C@@](O)(O2)C(=O)C(=O)N2CCCC[C@H]2C(=O)OC([C@H](C)C[C@@H]2CC[C@@H](O)[C@H](OC)C2)CC(=O)[C@H](C)/C=C(\C)[C@@H](O)[C@@H](OC)C(=O)[C@H](C)C[C@H](C)/C=C/C=C/C=C/1C (stereo partly specified)
6. Nc1cccc(-c2cc3c(Oc4cccc(O)c4)ncnc3[nH]2)c1
7. CCN(CC)C(=O)c1ccc(Nc2nc(OCC3CCCCC3)c3nc[nH]c3n2)cc1

Reply text:
[81.9, 10.6, 100, 101, 92.6, 86.8, 69.1]

Give me residual activity for each of these compounds, listed below.
1. CCN(CC)CCNC(=O)c1c(C)[nH]c(/C=C2\C(=O)Nc3ccc(Cl)cc32)c1C
2. Nc1ncnc2[nH]nc(Nc3ccc(F)cc3)c12
3. c1ccc(-c2n[nH]c3c2oc2ccccc23)cc1
4. CC[n+]1c(/C=C/N(C)c2ccccc2)n(-c2ccccc2)c2ccc(-c3nc4ccccc4s3)cc21

Reply text:
1. 101
2. 102
3. 94.7
4. 103

# per-item lookup of residual activity; items listed below
1. CCC(=O)Nc1ccc2ncnc(Nc3cccc(Br)c3)c2c1
2. Cc1ccc(Nc2nccc(N(C)c3ccc4c(C)n(C)nc4c3)n2)cc1S(N)(=O)=O
3. Cc1[nH]c(/C=C2\C(=O)Nc3ccc(S(=O)(=O)N(C)c4cccc(Cl)c4)cc32)c(C)c1C(=O)N1CCN(C)CC1
4. Cc1ccc(S(=O)(=O)/C=C/C#N)cc1
5. O=c1cc(N2CCOCC2)oc2c1ccc1ccccc12

Reply text:
1. 107
2. 93
3. 114
4. 102
5. 109

Answer for every listed entry: what is its residual activity? The entries follow.
1. CNC(=O)c1cc(Oc2ccc(NC(=O)Nc3ccc(Cl)c(C(F)(F)F)c3)cc2)ccn1
2. Cc1ccc(NC2=CC(=O)c3sc(C)nc3C2=O)cc1
3. Nc1ccc2ncnc(NCCc3ccc(Oc4ccccc4)cc3)c2c1

Reply text:
95.8
88.7
105
